Biological target: T1, native human ApoC3 (human, UniProt P02656 21-99)
T1 construct: also called nhuApoC3; native huApoC3
T1 sequence (P02656 21-99): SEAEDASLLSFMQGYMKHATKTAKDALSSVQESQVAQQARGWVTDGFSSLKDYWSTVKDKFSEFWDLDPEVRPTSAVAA
Assay: SPR, IgG1 over ApoC3 on CM5 chip, pH 5.5
observationType: kon (M⁻¹ s⁻¹)
Numbers only, in M⁻¹ s⁻¹.

Data request: Return reported kon; argument: 5E5VH12_VL8 human IgG1 (antibody, V domains shown, Tested as human IgG1) VH: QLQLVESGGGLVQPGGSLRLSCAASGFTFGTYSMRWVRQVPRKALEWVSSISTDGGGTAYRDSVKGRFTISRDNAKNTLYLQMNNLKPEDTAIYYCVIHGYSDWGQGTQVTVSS VL: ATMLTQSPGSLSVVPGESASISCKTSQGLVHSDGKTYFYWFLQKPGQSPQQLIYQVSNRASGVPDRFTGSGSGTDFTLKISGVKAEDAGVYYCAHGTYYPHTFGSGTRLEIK
Data returned: 188000
